All figures here come from patent US20130317027A1.

system: cancer cell lines; experiment: Cytotoxicity in a wide variety of cancer cell types (TC50, CellTiter-Glo, 72 or 96 hours); details: read-out: TC50; HCT-15 cells, colon; 3 DAY
metric: CC50 (nM)
Provide only the numeric value, understood in nM.

Enquiry: For the compound O=C(NCc1cccnc1)Nc1ccc(COc2ccccc2-c2ccccc2)cc1 [Exemplary Compound A] , what CC50 is on record?
Return: 0.7

* * *

tested on: cancer cell lines; assay: Cytotoxicity in a wide variety of cancer cell types (TC50, CellTiter-Glo, 72 or 96 hours); details: read-out: TC50; DU145 cells, prostate; 3 DAY
metric: CC50
Could you give the number and then its unit, please?

Enquiry: Which CC50 is reported for this molecule? O=C(NCc1cccnc1)Nc1ccc(COc2ccccc2-c2ccccc2)cc1
Return: 3.9 nM
